molecular target: human MAT2A enzyme (Homo sapiens (Human))
Sequence (P31153 whole entry): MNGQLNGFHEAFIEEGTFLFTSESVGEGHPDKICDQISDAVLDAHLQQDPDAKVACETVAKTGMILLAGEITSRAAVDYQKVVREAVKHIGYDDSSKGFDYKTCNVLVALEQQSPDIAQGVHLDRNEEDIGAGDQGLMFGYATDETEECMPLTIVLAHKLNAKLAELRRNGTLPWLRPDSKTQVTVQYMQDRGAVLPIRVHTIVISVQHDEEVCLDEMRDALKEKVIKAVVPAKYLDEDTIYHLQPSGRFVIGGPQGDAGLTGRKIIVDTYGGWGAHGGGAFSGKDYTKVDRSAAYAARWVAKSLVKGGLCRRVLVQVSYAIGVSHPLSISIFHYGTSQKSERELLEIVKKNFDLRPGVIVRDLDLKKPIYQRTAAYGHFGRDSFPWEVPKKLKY
Recorded measurements of IC50, one per entry
Please state the figure in nM; there is no need to write the unit.

Answered examples (10):
* CCOC(=O)c1c(N)c2ccc(Br)cc2n(-c2ccc3ncoc3c2)c1=O | 2.09
* COC(=O)c1c(N)c2ccc(C(F)(F)F)cc2n(-c2ccc(Br)cc2)c1=O | 1.68
* CCc1ccccc1-n1c(=O)c(C(=O)OC)c(N)c2ccc(C(F)(F)F)cc21 | 4.6
* COC(=O)c1c(N)c2ccc(Br)cc2n(-c2ccc(Br)cc2)c1=O | 1.52
* COC(=O)c1c(N)c2ccc(C(F)(F)F)cc2n(-c2ccc3c(c2)C(O)CC3)c1=O (stereo not shown) | 3.34
* COC(=O)c1c(N)c2ccc(C(F)(F)F)cc2n(-c2ccc(C(C)O)nc2)c1=O (stereo not shown) | 6.25
* COC(=O)c1c(N)c2ccc(Br)c(F)c2n(-c2ccc(N)cc2)c1=O | 1.45
* [2H]C([2H])([2H])OC(=O)c1c(N)c2ccc(C(F)(F)F)cc2n(-c2ccc(C(C)O)cc2)c1=O (stereo not shown) | 2.49
* COC(=O)c1c(N)c2ccc(Br)nc2n(-c2cnc(N)cc2C)c1=O | 1.72
* COC(=O)c1c(N)c2ccc(Br)nc2n(-c2ccc3ccncc3c2)c1=O | 0.86

input: What IC50 appears in the records for this compound with human MAT2A enzyme (Homo sapiens (Human))? `COC(=O)c1c(N)c2ccc(C(F)(F)F)cc2n(-c2cccc3[nH]ccc23)c1=O`
output: 4.18

input: Query the reported IC50 for human MAT2A enzyme (Homo sapiens (Human)); item: `COC(=O)c1c(N)c2ccc(Br)nc2n(-c2ccc(C)nc2)c1=O`
output: 1.31

input: Any idea what IC50 came out for `[2H]C([2H])([2H])OC(=O)c1c(N)c2ccc(OC(F)(F)F)cc2n(-c2ccc([C@@H](C)O)cc2)c1=O` on human MAT2A enzyme (Homo sapiens (Human))?
output: 1.52

input: Recorded IC50 for `COC(=O)c1c(N)c2ccc(Br)cc2n(-c2cccc3c(C)nccc23)c1=O` with human MAT2A enzyme (Homo sapiens (Human)), please?
output: 2.36

input: Param readout= IC50; system= human MAT2A enzyme (Homo sapiens (Human)); entry= `COC(=O)c1c(N)c2ccc(Br)nc2n(-c2ccc(N)cc2)c1=O` ; returns value.
output: 1.41

input: Request: IC50, test system human MAT2A enzyme (Homo sapiens (Human)), entry `COC(=O)c1c(N)c2ccc(Br)cc2n(-c2ccc(Cl)cc2C)c1=O`
output: 1.64

input: Please tell me: IC50 of `COC(=O)c1c(N)c2ccc(C(F)(F)F)nc2n(-c2ccc(N)nc2C)c1=O` , system human MAT2A enzyme (Homo sapiens (Human))?
output: 2.42

input: # get_value(readout= IC50, system= human MAT2A enzyme (Homo sapiens (Human))) for `C=Cc1ccc2c(N)c(C(=O)OC)c(=O)n(-c3ccccc3)c2c1`
output: 2.34

input: # get_value(readout= IC50, system= human MAT2A enzyme (Homo sapiens (Human))) for `COC(=O)c1c(N)c2ccc(C(F)(F)F)cc2n(-c2ccc3ccncc3c2)c1=O`
output: 2.81
